- Test system: Neuregulin-1 EGF-like domain
- assay.method.text: binders of neuregulin-1 EGF-like domain, primary screen, biochemical, small-molecule microarray, 635 nm fluorescence (AID 1081);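 also: binding of the protein to compounds printed on small-molecule microarray slides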
- measurement.context: small-molecule microarray binding, higher = more signal

compound	target.of.assay	composite z-score
CO[C@H]1COC(=O)[C@H](C)NC(=O)CC=C[C@@H](C)[C@H](NS(=O)(=O)c2ccc(C)cc2)COC(=O)CC=C[C@@H]1C	Neuregulin-1 EGF-like domain	-0.775
O=C1C2C=CC(C(O)c3ccccc3)N(n3cnnc3)C2C(=O)N1Cc1ccccc1 (stereo not drawn)	Neuregulin-1 EGF-like domain	0.544
C=CCc1cccc([C@H]2N[C@H](C(=O)O)CC[C@@H]2C)c1	Neuregulin-1 EGF-like domain	0.519
CCC1=C2CN(Cc3ccccc3Br)[C@@H]([C@@H](O)Cc3ccccc3)C2C=CCC1 (stereo partly drawn)	Neuregulin-1 EGF-like domain	0.817
Cc1ccc(S[C@]2(C(=O)O)CC(=O)N(Cc3ccccc3)[C@@H]2c2ccc(CO)cc2)cc1	Neuregulin-1 EGF-like domain	0.736
C[C@@H]1NC(=O)[C@H](Cc2ccccc2)NC(=O)[C@@]23C(=O)N[C@@H](Cc4ccccc4)C2[C@H](C)[C@@]2(C)O[C@H]2C3/C=C/C/C=C\CNC1=O (stereo partly drawn)	Neuregulin-1 EGF-like domain	-0.603
CO[C@H]1O[C@H](CO)[C@@H](OC(=O)Nc2ccccc2)[C@H](OC(=O)Nc2ccc3c(c2)OCO3)[C@@H]1OC(=O)Nc1ccc2c(c1)OCO2	Neuregulin-1 EGF-like domain	1.29
CO[C@H]1COC(=O)[C@@H](Cc2ccccc2)NC(=O)[C@@H](C)COC(=O)CC=C[C@@H]1C	Neuregulin-1 EGF-like domain	-0.294
